Reference source: ChEMBL document CHEMBL5550125

Experiment: Binding affinity to Pradimicin A assessed as suppression of pradimicin A induced growth inhibition of Candida rugosa AJ14513 by measuring minimum antagonistic concentration measured after 48 hrs by visual analysis
The entries below come with measured MAC values attached.
Just the number please, in mM, no unit attached.

Study these solved cases before continuing.
CO[C@H]1O[C@H](CO)[C@@H](O)[C@H](O)[C@@H]1O	16
CO[C@H]1O[C@H](CO)[C@@H](O)[C@H](O)[C@@H]1O[C@H]1O[C@H](CO)[C@@H](O)[C@H](O)[C@@H]1O	16
CO[C@H]1O[C@H](CO[C@H]2O[C@H](CO)[C@@H](O)[C@H](O)[C@@H]2O[C@H]2O[C@H](CO)[C@@H](O)[C@H](O)[C@@H]2O)[C@@H](O)[C@H](O[C@H]2O[C@H](CO)[C@H](O)[C@@H](O)[C@@H]2O[C@@H]2O[C@H](CO)[C@@H](O)[C@H](O)[C@H]2O)[C@@H]1O	1
CO[C@H]1O[C@H](CO[C@H]2O[C@H](CO)[C@@H](O)[C@H](O)[C@H]2O)[C@@H](O)[C@H](O[C@@H]2O[C@H](CO)[C@@H](O)[C@H](O)[C@H]2O)[C@@H]1O	16
CO[C@H]1O[C@H](CO[C@H]2O[C@H](CO)[C@@H](O)[C@H](O)[C@@H]2O)[C@@H](O)[C@H](O[C@@H]2O[C@H](CO)[C@@H](O)[C@H](O)[C@H]2O)[C@@H]1O	16

// next entry
Lookup: Entry OC[C@H]1O[C@H](OC[C@H]2O[C@H](O)[C@@H](O)[C@@H](O[C@@H]3O[C@H](CO)[C@@H](O)[C@H](O)[C@H]3O)[C@@H]2O)[C@@H](O)[C@@H](O)[C@@H]1O : reported MAC = ?
Found: 1
